# TARGET UNDER TEST: Mitogen-activated protein kinase 14 (Homo sapiens, UniProt Q16539); further: in other assays of this panel Not Active means under 50% inhibition at 10 µM;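 further: inhibition of p38alpha enzyme activity in a biochemical kinase assay, with myelin basic protein serving as substrate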
# Sequence (Q16539 whole entry): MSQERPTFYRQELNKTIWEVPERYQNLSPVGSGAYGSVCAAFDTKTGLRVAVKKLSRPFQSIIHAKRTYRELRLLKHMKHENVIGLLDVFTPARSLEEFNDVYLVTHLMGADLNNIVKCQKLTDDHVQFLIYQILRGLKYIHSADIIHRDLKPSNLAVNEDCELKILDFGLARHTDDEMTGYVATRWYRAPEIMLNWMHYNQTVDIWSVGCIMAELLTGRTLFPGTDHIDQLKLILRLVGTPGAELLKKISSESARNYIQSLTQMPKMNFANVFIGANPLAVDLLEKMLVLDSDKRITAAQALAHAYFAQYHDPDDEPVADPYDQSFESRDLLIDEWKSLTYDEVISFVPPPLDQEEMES
# Parameters: species or system Escherichia coli
READOUT: IC50

The compound listed as C[C@@H]1CC[C@@]2(OC1)O[C@H]1[C@@H](O)[C@H]3[C@@H]4CC[C@H]5C[C@@H](O[C@@H]6O[C@H](CO)[C@H](O[C@@H]7O[C@H](CO)C(O)[C@H](O[C@@H]8OC[C@@H](O)[C@H](O)[C@H]8O)[C@H]7O[C@@H]7O[C@H](CO)[C@H](O)[C@H](O[C@@H]8O[C@H](CO)[C@@H](O)[C@H](O)[C@H]8O)[C@H]7O)[C@H](O)[C@H]6O)[C@H](O)C[C@]5(C)[C@H]4CC[C@]3(C)[C@H]1[C@@H]2C (some centres not stated) has a reported IC50 of Not Active

The compound listed as COC(=O)CCc1ccc(OCC(O)CNC(C)C)cc1 (configuration not stated) has a reported IC50 of Not Active

From: ChEMBL document CHEMBL1909046
